- tested.system: Neu5Ac(a2-3)Gal(b1-4)GlcNAc(b1-3)Gal(b1-4)GlcNAc(b1-3)[Neu5Ac(a2-3)Gal(b1-4)GlcNAc(b1-3)Gal(b1-4)GlcNAc(b1-6)]GalNAc
- assay.notes: glycan array binding signal (z-score within array); higher = stronger binding
- condition.notes: glycan notation: IUPAC condensed, linker removed
This excerpt belongs to a sample that is enriched for the strongest signals.
value.type: glycan array binding signal (z-score)
// no unit, no text: just the number

Asked: Given the binder WGA (Triticum vulgare) (protein) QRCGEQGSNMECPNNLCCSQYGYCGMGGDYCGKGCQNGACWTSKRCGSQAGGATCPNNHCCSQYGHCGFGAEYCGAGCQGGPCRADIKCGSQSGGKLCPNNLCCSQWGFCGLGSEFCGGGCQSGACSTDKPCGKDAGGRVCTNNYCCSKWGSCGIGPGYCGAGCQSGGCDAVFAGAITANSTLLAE , write its reported glycan array binding signal (z-score).
Given back: -0.001

Asked: Give reported glycan array binding signal (z-score) value for OVGAL11 (Ovis aries), AAF64320 (protein) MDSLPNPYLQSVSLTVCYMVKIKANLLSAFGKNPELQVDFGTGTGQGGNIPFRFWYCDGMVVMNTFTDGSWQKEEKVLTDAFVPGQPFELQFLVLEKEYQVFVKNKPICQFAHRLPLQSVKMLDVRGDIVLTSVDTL
Given back: -0.068
